The measured values listed here are drawn from paper PMC12454493.

Tested on: SNB-19
ASSAY NOTES: NCI-60 one-dose SRB screen (CNS Cancer)
Assay type: cell-based
PROTOCOL CONDITIONS: Homo sapiens, single dose 10 µM, 48 h, read-out: Growth inhibition percent (GI %)
REPORTED PROPERTY: inhibition at 10 µM

> print(dat)
                              smiles.record  experimental.result
1  COc1ccc(-c2nn(-c3ccc(S(N)(=O)=O)cc3)cc2C(=O)OCC(=O)Nc2ccc(S(N)(=O)=O)cc2)cc1                 < 5%
2  CS(=O)(=O)c1ccc(-c2nn(-c3ccc(S(N)(=O)=O)cc3)cc2C(=O)NNC(N)=S)cc1                 < 5%
3  Cc1ccc(-c2nn(-c3ccc(S(N)(=O)=O)cc3)cc2C(=O)NNC(N)=S)cc1                 < 5%

###

# inhibition at 10 µM listing for each entry below
Tested on: SW-620
ASSAY NOTES: NCI-60 one-dose SRB screen (Colon Cancer)
Type: cell-based
PROTOCOL CONDITIONS: Homo sapiens, single dose 10 µM, 48 h, read-out: Growth inhibition percent (GI %)
REPORTED PROPERTY: inhibition at 10 µM

> print(dat)
                              smiles.record  target.of.assay  experimental.result
1  NS(=O)(=O)c1ccc(NC(=O)COC(=O)c2cn(-c3ccc(S(N)(=O)=O)cc3)nc2-c2ccc(Br)cc2)cc1           SW-620                 < 5%
2  CCOC(=O)c1ccc(NC(=O)COC(=O)c2cn(-c3ccc(S(N)(=O)=O)cc3)nc2-c2ccc(Br)cc2)cc1           SW-620                50.6%
3  Cc1ccc(-c2nn(-c3ccc(S(N)(=O)=O)cc3)cc2-c2n[nH]c(=S)[nH]2)cc1           SW-620                 < 5%
4  NS(=O)(=O)c1ccc(-n2cc(C(=O)OCC(=O)Nc3nnc(S(N)(=O)=O)s3)c(-c3ccccc3)n2)cc1           SW-620                 < 5%
